Tested on: CD2F1 mice, L1210 leukemia ip, survival T/C
Protocol description: NCI In Vivo Anticancer Drug Screen. Data for tumor model L1210 Leukemia (intraperitoneal) in CD2F1 (CDF1) mice
Run conditions: endpoint: mean survival time; dose: 100.0 mg/kg/injection; schedule: Q01DX009 (ip); vehicle: saline with Tween-80; higher = longer survival
Inconclusive results and toxic doses are left out.
Outcome measure: T/C

Worked cases, T/C given:
C=CC(C)(C)c1ccccc1 ... 96 % of control
CCOC(=O)CN1C(=O)NC(c2ccccc2)(c2ccccc2)C1=O ... 94 % of control

Provide reported T/C for each item, in the same order as listed.
1. NC(=S)c1csc(CCNC(=O)c2ccccc2)n1
2. [N-]=[N+]=Nc1cc(NC(=O)c2ccccc2)ccc1NC(=O)c1ccccc1
3. O=[N+]([O-])c1ccc2c(c1)CS(=O)(=O)O2
4. Cc1c2c(cc3c1[nH]c1ccccc13)C(c1ccc(Cl)cc1)=NCC2

# output
1: 98 % of control; 2: 96 % of control; 3: 109 % of control; 4: 101 % of control
